# System: phospho-ERK in MKN1 (WTdep) cells
# experiment_notes: Inhibition of KRas-mediated phosphorylation of ERK (in-cell western)
# Type: cell-based
# assay_context: Homo sapiens, MKN-1, 3 hours compound, phospho-ERK normalized to GAPDH
Measured log10 IC50, listed per entry for reference.
All values: log10 IC50 [nM].

These solved cases illustrate the format of a correct answer.
compound: CCc1c(F)ccc2cc(O)cc(-c3ncc4c(NCc5ccc6[nH]cnc6c5)nc(OC[C@@]56CCCN5C[C@H](F)C6)nc4c3F)c12
log10 IC50: 2.49

compound: CCc1c(F)ccc2cc(O)cc(-c3ncc4c(N5CC6C(=O)NC(=O)C6C5)nc(OC[C@@]56CCCN5C[C@H](F)C6)nc4c3F)c12 (stereo partly drawn)
log10 IC50: 1.04

compound: CCc1c(F)ccc2cccc(-c3ncc4c(N5CCC[C@@](C)(O)C5)nc(OCC56CCCN5CCC6)nc4c3F)c12
log10 IC50: 3.10

compound: C#Cc1c(F)ccc2cc(O)cc(-c3ncc4c(N5CCCC6(CC(=O)N6)C5)nc(OC[C@@]56CCCN5C[C@H](F)C6)nc4c3F)c12 (stereo partly drawn)
log10 IC50: 1.88

compound: CCc1c(F)ccc2cc(O)cc(-c3ncc4c(N5CCCC6(CC(=O)N6)C5)nc(OC[C@@]56CCCN5C[C@H](F)C6)nc4c3F)c12 (stereo partly drawn)
log10 IC50: 1.34

For the next question, use this compound.
Exercise: Param readout = log10 IC50; param system = phospho-ERK in MKN1 (WTdep) cells; param query = CCc1c(F)ccc2cc(O)cc(-c3ncc4c(N5CCC[C@@](C)(O)C5)nc(OC[C@@]56CCCN5[C@@H](CO)CC6)nc4c3F)c12 ; response: value
Solution: 1.18

---

# assay_system: KRas G12R (Homo sapiens, UniProt P01116, G12R)
# Sequence (P01116 1-169 isoform P01116-2 G12R): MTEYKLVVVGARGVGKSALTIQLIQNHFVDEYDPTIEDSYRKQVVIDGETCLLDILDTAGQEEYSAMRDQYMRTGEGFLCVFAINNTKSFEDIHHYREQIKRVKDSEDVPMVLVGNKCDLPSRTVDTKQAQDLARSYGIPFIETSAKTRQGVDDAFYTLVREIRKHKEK
# experiment_notes: biochemical
With a cut-off of 8000 nM, any IC50 strictly below it is called 1; any IC50 meeting it or above is called 0.

compound: CCc1c(F)ccc2cc(O)cc(-c3ncc4c(N5CCC[C@@]6(CNC(=O)C6)C5)nc(OC[C@]56CCCN5C[C@@H](O)C6)nc4c3F)c12
assay_system: KRas G12R (Homo sapiens, UniProt P01116, G12R)
label: 1
--
compound: O=C1NC2(CCN(c3nc(OCC45CCCN4CCC5)nc4c(F)c(-c5cccc6cccc(F)c56)ncc34)CC2)CO1
assay_system: KRas G12R (Homo sapiens, UniProt P01116, G12R)
label: 1
--
compound: CCc1c(F)ccc2cc(O)cc(-c3ncc4c(N5CC6CCC(C6)C5)nc(OC[C@@]56CCCN5C[C@H](F)C6)nc4c3F)c12
assay_system: KRas G12R (Homo sapiens, UniProt P01116, G12R)
label: 1
--
compound: CCc1c(F)ccc2cc(O)cc(-c3ncc4c(N5CCCC6(CCC(O)C6)C5)nc(OC[C@@]56CCCN5C[C@H](F)C6)nc4c3F)c12 (stereo partly drawn)
assay_system: KRas G12R (Homo sapiens, UniProt P01116, G12R);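 further: TR-FRET displacement assay of compound binding to KRas, read after one hour at room temperature, potency from a four-parameter fit of percent-of-control values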
label: 1

Exercise: Does the reported IC50 of CC1(O)CCCN(c2nc(OCC34CCCN3CCC4)nc3c(F)c(-c4cccc5cccc(C#N)c45)ncc23)C1 (stereo not drawn) stay below 8000 nM?
Solution: 0

---

Measured IC50, listed per entry for reference.
# assay_system: KRas G12S (Homo sapiens, UniProt P01116, G12S);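 further: TR-FRET displacement binding to KRas, read after one hour incubation at room temperature, IC50 from four-parameter fit of percent of control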
# Sequence (P01116 1-169 isoform P01116-2 G12S): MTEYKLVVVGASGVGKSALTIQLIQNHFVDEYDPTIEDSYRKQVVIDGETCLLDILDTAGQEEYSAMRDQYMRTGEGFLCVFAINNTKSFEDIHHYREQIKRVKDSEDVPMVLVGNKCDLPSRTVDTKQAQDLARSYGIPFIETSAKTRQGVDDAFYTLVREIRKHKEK
# experiment_notes: biochemical
The reply should be a number in µM, with the unit left off.

These solved cases illustrate the format of a correct answer.
molecule: CSc1cccc2cccc(-c3ncc4c(N5CCCC6(CC(=O)N6)C5)nc(OCC56CCCN5CCC6)nc4c3F)c12 (stereo not drawn)
IC50, µM: 0.146

molecule: OCC1CCCN(c2nc(OCC34CCCN3CCC4)nc3c(F)c(-c4cccc5cccc(F)c45)ncc23)C1 (stereo not drawn)
IC50, µM: 10.6

Exercise: Report IC50 for O=S1(=O)CC(Nc2nc(OCC34CCCN3CCC4)nc3c(F)c(-c4cccc5cccc(F)c45)ncc23)C1 please.
Solution: 4.12

---

# System: pERK in PSN1 cells
# experiment_notes: Inhibition of KRas phosphorylation of ERK (Cisbio HTRF pERK assay)
# assay_context: Homo sapiens, PSN1, 3 h, read-out: Inhibition (HTRF IC50) of KRas-mediated Phosphorylation of ERK, PSN1
pIC50: −log10 of the molar value.
The label depends only on pIC50: yes if it is at least 6, no if it is smaller.

compound: CCc1c(F)ccc2cc(O)cc(-c3ncc4c(N5CCOCC(O)C5)nc(OC[C@@]56CCCN5C[C@H](F)C6)nc4c3F)c12 (stereo partly drawn)
label: no

Exercise: Is pIC50 at least 6? Consider CCc1c(F)ccc2cc(O)cc(-c3ncc4c(N5CCC[C@]6(C5)C[C@H](O)C6)nc(OC[C@@]56CCCN5C[C@H](F)C6)nc4c3F)c12 (single isomer, unassigned)
Solution: yes

---

# assay_system: KRas G12A (Homo sapiens, UniProt P01116, G12A)
# Sequence (P01116 1-169 isoform P01116-2 G12A): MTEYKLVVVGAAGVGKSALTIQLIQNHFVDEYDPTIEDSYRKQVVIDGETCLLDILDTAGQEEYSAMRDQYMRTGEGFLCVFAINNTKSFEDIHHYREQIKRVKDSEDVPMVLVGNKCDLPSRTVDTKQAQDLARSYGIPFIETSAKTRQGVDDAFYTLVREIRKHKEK
# experiment_notes: biochemical
test_readout: log10(IC50) (log10 of the value in nM)
All values: log10 IC50 [nM].

These solved cases illustrate the format of a correct answer.
molecule: Cc1cc(N)nc(-c2ncc3c(N4CCC[C@@](C)(O)C4)nc(OC[C@@H]4CCCN4C)nc3c2F)c1C(F)(F)F
assay_system: KRas G12A (Homo sapiens, UniProt P01116, G12A)
log10(IC50): 3.69

molecule: CS(=O)(=O)C1CCCCCN(c2nc(OCC34CCCN3CCC4)nc3c(F)c(-c4cccc5cccc(F)c45)ncc23)C1 (centres unmarked)
assay_system: KRas G12A (Homo sapiens, UniProt P01116, G12A)
log10(IC50): 3.79

molecule: O=C1NC(=O)C2(COCCN(c3nc(OCC45CCCN4CCC5)nc4c(F)c(-c5cccc6cccc(F)c56)ncc34)C2)N1 (centres unmarked)
assay_system: KRas G12A (Homo sapiens, UniProt P01116, G12A)
log10(IC50): 2.14

molecule: OCC1COCCN(c2nc(OCC34CCCN3CCC4)nc3c(F)c(-c4cccc5cccc(F)c45)ncc23)C1 (centres unmarked)
assay_system: KRas G12A (Homo sapiens, UniProt P01116, G12A)
log10(IC50): 2.87

molecule: O=C1CC2(CCCN(c3nc(OCC45CCCN4CCC5)nc4c(F)c(-c5cccc6cccc(F)c56)ncc34)C2)N1 (centres unmarked)
assay_system: KRas G12A (Homo sapiens, UniProt P01116, G12A)
log10(IC50): 2.36

molecule: O=CNC1CCCN(c2nc(OCC34CCCN3CCC4)nc3c(F)c(-c4cccc5cccc(F)c45)ncc23)C1 (centres unmarked)
assay_system: KRas G12A (Homo sapiens, UniProt P01116, G12A)
log10(IC50): 3.91

molecule: NS(=O)(=O)CC1CN(c2nc(OCC34CCCN3CCC4)nc3c(F)c(-c4cccc5cccc(F)c45)ncc23)CCO1 (centres unmarked)
assay_system: KRas G12A (Homo sapiens, UniProt P01116, G12A)
log10(IC50): 2.99

molecule: Fc1c(-c2cccc3cccc(F)c23)ncc2c(NCCCc3cccnc3)nc(OCC34CCCN3CCC4)nc12
assay_system: KRas G12A (Homo sapiens, UniProt P01116, G12A)
log10(IC50): 3.32

molecule: O=C1NCC2(CCCN(c3nc(OCC45CCCN4CCC5)nc4c(F)c(-c5cccc6cccc(CO)c56)ncc34)C2)N1 (centres unmarked)
assay_system: KRas G12A (Homo sapiens, UniProt P01116, G12A)
log10(IC50): 2.75

Exercise: Report log10(IC50) for O=S1(=O)CC(Nc2nc(OCC34CCCN3CCC4)nc3c(F)c(-c4cccc5cccc(F)c45)ncc23)C1 please.
Solution: 3.70

---

# assay_system: KRas G12D (Homo sapiens, UniProt P01116, G12D);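 further: TR-FRET displacement binding assay on KRas, read after a one-hour incubation at room temperature, IC50 fitted from percent-of-control values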
# Sequence (P01116 1-169 isoform P01116-2 G12D): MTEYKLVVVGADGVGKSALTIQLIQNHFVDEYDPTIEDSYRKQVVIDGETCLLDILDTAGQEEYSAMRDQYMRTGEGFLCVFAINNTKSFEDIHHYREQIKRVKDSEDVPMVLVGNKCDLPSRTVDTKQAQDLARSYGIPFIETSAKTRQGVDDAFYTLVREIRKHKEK
# experiment_notes: biochemical
test_readout: IC50 (µM)
The reply should be a number in µM, with the unit left off.

Exercise: Report IC50 for OC1CCC2(CCCN(c3nc(OCC45CCCN4CCC5)nc4c(F)c(-c5cccc6cccc(F)c56)ncc34)C2)C1 (stereo not shown) [Example 47] please.
Solution: 63.4

Exercise: Report IC50 for CCc1cccc2cccc(-c3ncc4c(N5CCCC6(CNC(=O)N6)C5)nc(OCC56CCCN5CCC6)nc4c3F)c12 (stereo not shown) [Example 294] please.
Solution: 0.009

Exercise: Report IC50 for CCc1c(F)ccc2cc(O)cc(-c3ncc4c(NCc5cccnc5N)nc(OC[C@@]56CCCN5C[C@H](F)C6)nc4c3F)c12 [Example 136] please.
Solution: 0.003

Exercise: Report IC50 for CN(C)C(=O)c1cc2n(n1)CCCN(c1nc(OCC34CCCN3CCC4)nc3c(F)c(-c4cccc5cccc(F)c45)ncc13)C2 [Example 260] please.
Solution: 0.061

Exercise: Report IC50 for CCc1c(F)ccc2cc(O)cc(-c3ncc4c(NCC5CCC(=O)N5)nc(OC[C@@]56CCCN5C[C@H](F)C6)nc4c3F)c12 (stereo partly shown) [Example 371] please.
Solution: 0.007
